All figures here come from patent US20070196376A1.

target: mouse IGF-II (mouse, UniProt P09535 25-91); assay: cell-based or functional assay
MEASURED METRIC: Mouse IGF-II EC50 (nM), n = 1, phosphorylation of hIGF-IR in NIH3T3 cells
I only need the number, in nM, no unit after it.

Answered cases to consult:
| BINDER | UNIT SPEC | READING |
| --- | --- | --- |
| mAb 7.34.1 (antibody, V domains shown, Fully human XenoMouse hybridoma mAb, lambda light chain (V1-13/JL2); also called ATCC PTA-7423) VH: QVQLQESGPGLVKPSETLSLTCTVSGGSISSYYWSWIRQPPGRGLEWIGYFFYSGYTNYNPSLKSRVTMSVDTSKNQFSLKLSSVTAADTAVYYCACITGTTKGGMDVWGQGATVTVSS VL: QSVLTQAPSVSGAPGQRVTISCTGRSSNIGAGYDVHWYQQFPGTAPKLLIYGNSNRPSGVPDRFSGSKSGTSASLAITGLQAEDEADYYCQSYDSSLSGSVFGGGTKLTVLG | nM | 4 |
| mAb 7.251.3 (antibody, V domains shown, Fully human XenoMouse hybridoma mAb, lambda light chain (V1-13/JL2); also called ATCC PTA-7422) VH: QVQLQESGPGLVKPSETLSLTCTVSGGSISSYYWSWIRQPPGKGLEWIGYFFYSGYTNYNPSLKSRVTISVDTSKNQFSLKLSSVTAADTAVYYCACITGTTKGGMDVWGQGTTVTVSS VL: QSVLTQPPSVSGAPGQRVTISCTGSSSNIGAGYDVHWYQQLPGTAPKLLIYGNNNRPSGVPDRFSGSKSGTSASLAITGLQADDEADYYCQSFDSSLSGSVFGGGTKLTVLG | nM | 5.4 |
| mAb 7.234.2 (antibody, V domains shown, Kappa light chain (L5/JK3); also called 7.234.1; 7_234_1) VH: QLQLQESGPGLVKPSETLSLTCTVSGGSINSSSNYWGWIRQPPGKGLAWIGGIYYSGSTYYNPSLRSRVTMSVDTSKNQFSLKLSSVTAADTAVYYCARQRGHSSGWWYFDLWGRGTLVTVSS VL: DIQMTQSPSSVSASVGDRVTITCRASRGISSWLAWYQQRPGKAPKLLIYTASSLQSGVPSRFSGSGSGTDFTLTISSLQPEDFATYYCQQANSFPFTFGPGTKVDIKR | nM | 36.1 |

Please look at the following binder next.
In one line, give reported Mouse IGF-II EC50 (nM), n = 1, phosphorylation of hIGF-IR in NIH3T3 cells of the entry mAb 7.159.2 (antibody, V domains shown, Fully human XenoMouse hybridoma mAb, lambda light chain (V1-19/JL2); Sister clones 7.159.1 and 7.159.2 are said to be identical; also called 7.159.1; 7_159_1) VH: QVQLVQSGAEVKKPGASVKVSCKASGYTFTSYDINWVRQATGQGLEWMGWMNPNSGNTGYAQKFQGRVTMTRNTSISTAYMELSSLRSEDTAVYYCARDPYYYYYGMDVWGQGTTVTVSS VL: QSVLTQPPSVSAAPGQKVTISCSGSSSNIENNHVSWYQQLPGTAPKLLIYDNNKRPSGIPDRFSGSKSGTSATLGITGLQTGDEADYYCETWDTSLSAGRVFGGGTKLTVLG . 3.1
